Target: 20 kD truncated collagenase-3 (MMP-13)
Assay: Matrix Metalloprotease Inhibition Protocol, collagenase-3
Details: fluorogenic substrate, pH 7.6; IC50 equivalent to Ki at [S]<<Km
Known Ki of a selection of molecules
Result Type: Ki

> print(dat)
                                    molecule  endpoint.result
 1  CCC[C@@H]([C@@H](CC(C)Cc1ccccc1)C(=O)N[C@@H](CCCCNC(=O)OCc1ccccc1)C(=O)Nc1nccs1)N(O)C=O (stereo partly shown)   500 to 1000 nM
 2  CC(C)(C)[C@H](NC(=O)[C@H](CCCc1ccccc1)[C@H](CCC(F)(F)F)N(O)C=O)C(=O)Nc1nccs1         < 100 nM
 3  CCC[C@@H]([C@@H](CC(C)Cc1ccccc1)C(=O)N[C@H](C(=O)Nc1nccs1)C(C)(C)SCCNC(=O)OCc1ccccc1)N(O)C=O (stereo partly shown)   500 to 1000 nM
 4  C[C@@H]([C@@H](CC1CCC(c2ccccc2)CC1)C(=O)N[C@H](C(=O)Nc1nccs1)C(C)(C)C)N(O)C=O (stereo partly shown)         < 100 nM
 5  CCC[C@@H]([C@@H](CC(C)Cc1ccccc1)C(=O)N[C@H](C(=O)Nc1nccs1)C(C)(C)C)N(O)C=O (stereo partly shown)    100 to 500 nM
 6  CCC[C@@H]([C@H](COCc1ccccc1)C(=O)N[C@@H](CCCCNC(=O)OCc1ccccc1)C(=O)Nc1nccs1)N(O)C=O    100 to 500 nM
 7  C[C@@H]([C@@H](CCCc1ccccc1)C(=O)N[C@H](C(=O)Nc1cccnc1)C(C)(C)C)N(O)C=O         < 100 nM
 8  CCC[C@@H]([C@@H](CCCc1ccoc1)C(=O)N[C@H](C(=O)Nc1nccs1)C(C)(C)C)N(O)C=O         < 100 nM
 9  C[C@@H]([C@@H](CCCc1ccc(Cl)cc1)C(=O)N[C@H](C(=O)Nc1cccnc1)C(C)(C)C)N(O)C=O         < 100 nM
10  CCC[C@@H]([C@@H](CCCc1ccoc1)C(=O)N[C@@H](CCCCNC(=O)OCc1ccccc1)C(=O)Nc1nccs1)N(O)C=O         < 100 nM
